The reported measurements were obtained from the supplement of paper PMC9170038.

- Test system: MS2 coat protein
- assay-text: apparent KD of MS2 coat protein; designed switch direction (-1 OFF switch, 1 ON switch): -1; higher = weaker reporter binding
- condition-parameters: input ligand: FMN 200 uM
Each entry below lists one item and its recorded apparent KD of MS2 coat protein value.
Reply with the number and its unit after it.

Here is how some sequences turned out for apparent KD of MS2 coat protein.
construct-sequence: UUGAUUGGUGUAGGAUAUGUAUGAGGAUCACCCAUUAAUAAAUUUUAACCACGAGGAUCACCCGUGUAGAAGGACAUUGGUUAU [pwkr exNG2 2xF5 1xFMN.21] (Eterna round: R96, puzzle: Exclusion NG 2)
assayed-system: MS2 coat protein
apparent KD of MS2 coat protein: 51.9 nM
//
construct-sequence: GGCCCGCGCGGGCCCGGGCCCGGGACAUGAGGAUCACCCAUGUAGGAUAUCCGGCCCGCCGGGCCGGAGAAGGACAUGGGCCCG [-48.9, -45.2 kcal, 17% A] (Eterna round: R96, puzzle: Exclusion NG 3)
assayed-system: MS2 coat protein
apparent KD of MS2 coat protein: 34.1 nM
//
construct-sequence: AGAUCACAUGAGGAUCACCCAUGUCAGGAUAUCGUCACUGGAGCUUCGGCUCCAGUGACGAGAAGGGACAAUUA [E1/1-A3] (Eterna round: R97, puzzle: Exclusion 1)
assayed-system: MS2 coat protein
apparent KD of MS2 coat protein: 304 nM
//
construct-sequence: CCGGCCGCCGUGAGGAUAUGCCCGCGCGCCCGCGGGCAGAAGGCACAUGAGGAUCACCCAUGUCCCGCGGUCCC [salish99_bmx4_r4_123] (Eterna round: R97, puzzle: Brourd's mod of Exclusion 4)
assayed-system: MS2 coat protein
apparent KD of MS2 coat protein: 35.8 nM

Now look at this entry.
Q. Please report the recorded apparent KD of MS2 coat protein for CUCGUGCAGCUUUGCUGUACGAGUACAUGAGGAUCACCCAUGUAGGAUAUGGUACGCUUUGCGUGCCAGAAGGACGUGUGUUUG [JL EXNG3 1.40] (Eterna round: R96, puzzle: Exclusion NG 3) .
A. 221 nM
